meta.source: paper PMC10377586

Target or system UniProtKB Q9Y233; recorded quantity pIC50.
Sequence (Q9Y233 1-779 isoform Q9Y233-1): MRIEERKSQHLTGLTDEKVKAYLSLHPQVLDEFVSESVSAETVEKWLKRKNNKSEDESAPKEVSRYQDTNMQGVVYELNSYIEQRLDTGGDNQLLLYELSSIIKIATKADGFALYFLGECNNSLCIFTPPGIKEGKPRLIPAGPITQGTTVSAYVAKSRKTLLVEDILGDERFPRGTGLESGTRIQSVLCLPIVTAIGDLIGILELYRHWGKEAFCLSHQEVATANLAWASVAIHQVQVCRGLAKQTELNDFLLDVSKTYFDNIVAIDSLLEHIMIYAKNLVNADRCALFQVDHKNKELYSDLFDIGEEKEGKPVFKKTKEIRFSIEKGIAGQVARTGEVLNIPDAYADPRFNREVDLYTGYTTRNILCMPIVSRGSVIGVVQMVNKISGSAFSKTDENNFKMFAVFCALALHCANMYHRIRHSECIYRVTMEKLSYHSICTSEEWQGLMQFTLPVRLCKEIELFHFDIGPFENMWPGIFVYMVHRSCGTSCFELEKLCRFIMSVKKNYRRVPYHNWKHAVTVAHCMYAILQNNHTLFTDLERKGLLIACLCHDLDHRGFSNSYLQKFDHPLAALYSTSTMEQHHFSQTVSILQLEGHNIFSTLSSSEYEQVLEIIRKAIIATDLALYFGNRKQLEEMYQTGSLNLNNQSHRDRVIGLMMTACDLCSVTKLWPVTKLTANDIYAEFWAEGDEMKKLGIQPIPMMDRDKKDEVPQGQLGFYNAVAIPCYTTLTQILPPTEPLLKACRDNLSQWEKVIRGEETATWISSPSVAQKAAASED
# reply with the number alone; pIC50 is -log10 of concentration in mol/L

Example cases with answers are listed next.
>>> measurement("CCC(C)n1c(NCCc2ccc(O)c(O)c2)nc2c1c(=O)n(C)c(=O)n2C (stereo not shown) [Compound 11g]")
4.99
>>> measurement("CC(C)n1c(NCCc2ccc(O)c(O)c2)nc2c1c(=O)n(C)c(=O)n2C [Compound 11d]")
5.64
>>> measurement("Cn1c(=O)c2c(nc(NCCc3ccc(O)c(O)c3)n2C)n(C)c1=O [Compound 11a]")
4.82

Would you kindly look at the next entry?
**Q:** Please look up its pIC50: CCn1c(NCCc2ccc(O)c(O)c2)nc2c1c(=O)n(C)c(=O)n2C [Compound 11b]
**A:** 5.33
